test system: S. cerevisiae Burl-1 ts mutant growth, BacTiter-Glo, 38.5C 24 h; test: restored growth of temperature-sensitive Burl-1 yeast – whole organism, S. cerevisiae, Burl-1 ts mutant, luminescence, counter-screen for SUMOylation pathway inhibitor project, dose response (AID 463199)
The source made the active and inactive calls.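 Rule for the calls: active = AC50, the dose giving half-maximal effect, exceeds a fixed cutoff for a compound that rescues yeast growth under heat; inactive = the rest, inconclusive results apart.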
Bench note: report the call from class 1 = active, class 0 = inactive

Reference set (3 entries):
1) O=C(O)C1CCCN1C(=O)c1cncc(Br)c1 (stereo not given) | class 0
2) CC(C)(CNC(=O)c1cccs1)CNC(=O)c1cccs1 | class 0
3) COc1ccc(NC(=O)CCCc2ccccc2)cc1OC | class 1

Request: GET /call?item= COc1ccc(C)cc1NC(=O)C12CCC(C)(C(=O)O1)C2(C)C (stereo not given) returns the recorded outcome of this test.
Response: class 0

Request: Could you check what this test reported for COc1cc2c(cc1OC)C(c1ccccc1C)CC(=O)N2 (stereo not given) ?
Response: class 0

Request: Lab log entry: CN(C)CCNC(=O)c1scc2c1CCCC2 — outcome as called in the assay?
Response: class 0

Request: What outcome does the record of this test show for Cc1cc(C)c[n+](-c2nc3ccccc3nc2[N-]S(=O)(=O)c2ccc(Br)s2)c1 ?
Response: class 0

Request: So what was the verdict on Cc1nn(C)c(C)c1-c1c(C#N)c(N)nc2c1CCCCCC2 in this test?
Response: class 0
